Known folding enthalpy of a selection of sequences
Assay: folding enthalpy; higher = less favourable; fluorescence melt of hairpins on a sequencing array, two-state fit
Conditions: sodium 0.088 M
QUANTITY: folding enthalpy (kcal/mol)

{"SEQUENCE_CODE": "GTAGGTGGAAACACTTAC (((.(((....))).)))", "EXPERIMENTAL_RESULT": -28.4}
{"SEQUENCE_CODE": "GGTGGCGGAAACGCTGCC ((..(((....)))..))", "EXPERIMENTAL_RESULT": -31.8}
{"SEQUENCE_CODE": "GAGCCAGGAAACTGGCCC (.(((((....))))).)", "EXPERIMENTAL_RESULT": -11.3}
{"SEQUENCE_CODE": "GCGAGCCTCGC ((((...))))", "EXPERIMENTAL_RESULT": -21.9}
{"SEQUENCE_CODE": "GTTGTATCGAAAGATAAC (((..(((....))))))", "EXPERIMENTAL_RESULT": -27.3}
{"SEQUENCE_CODE": "GGGAGCGAAAGCTCGCCC ((((((....)))..)))", "EXPERIMENTAL_RESULT": -11.6}
{"SEQUENCE_CODE": "GGTGCGGGAAACCGCGTC (..((((....))))..)", "EXPERIMENTAL_RESULT": -11.5}
{"SEQUENCE_CODE": "GCCTCGCGAAAGCGGTGC ((..(((....)))..))", "EXPERIMENTAL_RESULT": -14.1}
{"SEQUENCE_CODE": "GTGTGGGGAAACCCATGC (..((((....))))..)", "EXPERIMENTAL_RESULT": -21.5}
{"SEQUENCE_CODE": "GCCGGCGAAAGCCAAGGC ((((((....)))..)))", "EXPERIMENTAL_RESULT": -22.8}
{"SEQUENCE_CODE": "GTTAGCGAAAGCTCAAC ((((((....))).)))", "EXPERIMENTAL_RESULT": -11.8}
{"SEQUENCE_CODE": "TTCCCGAAAGGGAA (((((....)))))", "EXPERIMENTAL_RESULT": -24}
{"SEQUENCE_CODE": "GCGTACGAAAGTAATCGC ((((((....)))..)))", "EXPERIMENTAL_RESULT": -23.6}
{"SEQUENCE_CODE": "GCGGAACTCCGC ((((....))))", "EXPERIMENTAL_RESULT": -25.7}
{"SEQUENCE_CODE": "GCAACCCGAAAGGGATGC (((.(((....))).)))", "EXPERIMENTAL_RESULT": -32.9}
{"SEQUENCE_CODE": "GTGTGAGGAAACTCATAC ((.((((....)))).))", "EXPERIMENTAL_RESULT": -36.5}
{"SEQUENCE_CODE": "GTCTGCGAAAGCACAGAC ((((((....)))..)))", "EXPERIMENTAL_RESULT": -18.6}
{"SEQUENCE_CODE": "GATCAAGAATTTGATC ((((((....))))))", "EXPERIMENTAL_RESULT": -30.8}
{"SEQUENCE_CODE": "GCGTACAACGC ((((...))))", "EXPERIMENTAL_RESULT": -22.4}
{"SEQUENCE_CODE": "GTCCACGAAAGTGTCGAC ((((((....)))..)))", "EXPERIMENTAL_RESULT": -14}
{"SEQUENCE_CODE": "GGTGGCGAAAGCCGAACC ((((((....)))..)))", "EXPERIMENTAL_RESULT": -14.9}
{"SEQUENCE_CODE": "GATCCTGACAAGGATC ((((((....))))))", "EXPERIMENTAL_RESULT": -38}
{"SEQUENCE_CODE": "GCACACGCGAAAGCGTGC (((..(((....))))))", "EXPERIMENTAL_RESULT": -5.12}
{"SEQUENCE_CODE": "GCGTACGGAAACATACGC (((((.(....).)))))", "EXPERIMENTAL_RESULT": -33.8}
{"SEQUENCE_CODE": "GACGATGCGAAAGCAGTC (((..(((....))))))", "EXPERIMENTAL_RESULT": -16.9}
{"SEQUENCE_CODE": "GATCCAACGGTGGATC ((((((....))))))", "EXPERIMENTAL_RESULT": -43.3}

----------
Assay: melting temperature; fluorescence melt of hairpins on a sequencing array, two-state fit, raised by 9.35 °C to match UV melts
Settings: sodium 0.088 M
Labels assigned by Tm range: bin 1 (below 40 °C), bin 2 (40 °C to below 50 °C), bin 3 (50 °C or more)

{"SEQUENCE_CODE": "GTTGCCGAAAGGCGCAAC ((((((....)))..)))", "DISCRETE_LABEL": "bin 1"}
{"SEQUENCE_CODE": "GCACAAGCGAAAGCTTGC (((..(((....))))))", "DISCRETE_LABEL": "bin 1"}
{"SEQUENCE_CODE": "GTACTGAAAAGTAC (((((....)))))", "DISCRETE_LABEL": "bin 2"}
{"SEQUENCE_CODE": "GATCTCAATAGAGATC ((((((....))))))", "DISCRETE_LABEL": "bin 3"}
{"SEQUENCE_CODE": "GTGGTGCGAAAGCACAC (((.(((....))))))", "DISCRETE_LABEL": "bin 3"}
{"SEQUENCE_CODE": "GCTGAAACGAAAGTTAGC (((..(((....))))))", "DISCRETE_LABEL": "bin 1"}
{"SEQUENCE_CODE": "GGCATGCCGAAAGGCGCC (((..(((....))))))", "DISCRETE_LABEL": "bin 3"}
{"SEQUENCE_CODE": "GTGCCCGGAAACGGGTAC ((.((((....)))).))", "DISCRETE_LABEL": "bin 3"}
{"SEQUENCE_CODE": "GAGGCGGGAAACCACCCC (.((.((....)).)).)", "DISCRETE_LABEL": "bin 1"}
{"SEQUENCE_CODE": "GTAACAGGAAACTGCTAC (((.(((....))).)))", "DISCRETE_LABEL": "bin 1"}
{"SEQUENCE_CODE": "GATCACGGAAACGTGGTC ((.((((....)))).))", "DISCRETE_LABEL": "bin 3"}
{"SEQUENCE_CODE": "GATCTCCCGAAAGGGATC (((..(((....))))))", "DISCRETE_LABEL": "bin 1"}
{"SEQUENCE_CODE": "GCCCGGCGAAAGCCGAGC ((.((((....)))).))", "DISCRETE_LABEL": "bin 3"}
{"SEQUENCE_CODE": "GTCCTCGCGAAAGCGGAC (((..(((....))))))", "DISCRETE_LABEL": "bin 2"}
{"SEQUENCE_CODE": "GTGCCGCGAAAGCGTCAC (((.(((....))).)))", "DISCRETE_LABEL": "bin 3"}
{"SEQUENCE_CODE": "GATCTATTATAGATC ((((((...))))))", "DISCRETE_LABEL": "bin 2"}
{"SEQUENCE_CODE": "GCTTGACGAAAGTCAGC (((.(((....))))))", "DISCRETE_LABEL": "bin 3"}
{"SEQUENCE_CODE": "GGGCTGCGAAAGCACCCC (((.(((....))).)))", "DISCRETE_LABEL": "bin 3"}
{"SEQUENCE_CODE": "GATTACGAAAGTAAATC ((((((....))).)))", "DISCRETE_LABEL": "bin 1"}
